- experimental-parameters: in n-butanol, 288.2 K
recorded-endpoint: solubility (mole fraction)
Form field (numeric): enter value without unit.

## Input Dear colleague, please send me the reported solubility (mole fraction) for Cc1cc(=O)c(C(=O)N[C@@H](C(=O)N[C@@H]2C(=O)N3C(C(=O)O)=C(CSc4nnnn4C)CS[C@H]23)c2ccc(O)cc2)c[nH]1 when you can.
## Output 0.000139

====

- experimental-parameters: in n-propanol, 293.2 K
recorded-endpoint: solubility (mole fraction)
Form field (numeric): enter value without unit.

## Input Dear colleague, please send me the reported solubility (mole fraction) for Cc1cc(=O)c(C(=O)N[C@@H](C(=O)N[C@@H]2C(=O)N3C(C(=O)O)=C(CSc4nnnn4C)CS[C@H]23)c2ccc(O)cc2)c[nH]1 when you can.
## Output 0.000348
